Target System: UDP-3-O-acyl-N-acetylglucosamine deacetylase (Escherichia coli (strain K12))
Sequence (P0A725 whole entry): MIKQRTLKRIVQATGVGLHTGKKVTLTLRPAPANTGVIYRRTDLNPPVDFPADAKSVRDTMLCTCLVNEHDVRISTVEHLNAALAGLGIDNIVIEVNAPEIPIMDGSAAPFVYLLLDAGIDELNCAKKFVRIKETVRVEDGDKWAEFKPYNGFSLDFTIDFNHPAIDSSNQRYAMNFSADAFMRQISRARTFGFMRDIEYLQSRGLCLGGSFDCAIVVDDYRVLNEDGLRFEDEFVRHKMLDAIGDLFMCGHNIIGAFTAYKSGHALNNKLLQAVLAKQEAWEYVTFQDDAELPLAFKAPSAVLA
Procedure Details: LpxC Assay
Readout Type: IC50

Worked cases, answers included:
O=c1ccn(C2OC(CO/N=C/c3cccc(O)c3O)C(O)C2O)c(=O)[nH]1 (stereo not given) [1-68Ac analogue] :: > 500 µM
O=c1ccn(C2OC(CO/N=C/c3ccc(O)c(O)c3O)C(O)C2O)c(=O)[nH]1 (stereo not given) [1-68A analogue] :: 27 µM
O=C(CO/N=C/c1ccc(O)c(O)c1O)NCC1OC(n2ccc(=O)[nH]c2=O)C(O)C1O (stereo not given) [2-68A analogue] :: 120 µM
O=c1ccn(C2OC(CO/N=C/c3ccc(O)c(O)c3)C(O)C2O)c(=O)[nH]1 (stereo not given) [1-68Aa analogue] :: 30 µM

Please give the measured IC50 for this compound: O=c1ccn(C2OC(CO/N=C/c3cc(O)c(O)c(O)c3)C(O)C2O)c(=O)[nH]1 (stereo not given) [1-68Ad analogue]
> 500 µM
